- Tested on: SK-OV-3 ovarian
- ASSAY SUMMARY: NCI tumour cell line growth inhibition, 48 h; in the data active = GI50 below about 0.43 µM; inactive = the rest
Outcomes: active, inactive

COMPOUND: C/C=C/C/C=C/[C@H](C)C[C@H](O)[C@@H]1C[C@@H]2O[C@H]2/C=C/[C@@H]2OC(C)(C)O[C@H]2/C=C/C[C@H](C)CC(=O)O1
CLASS NAME: inactive

COMPOUND: NCCCOc1cc2ccccc2cc1C(=O)Nc1ccc(Cl)cc1OC(=O)c1cc2ccccc2cc1OCCCN
CLASS NAME: inactive

COMPOUND: COc1ccc(C(C)c2cc(OC)c(OC)c(OC)c2)cc1 (centres undefined)
CLASS NAME: active

COMPOUND: Cc1cc(C(=O)/C=C/c2ccc[nH]2)ccc1-n1ccc(C(F)(F)F)n1
CLASS NAME: inactive

COMPOUND: N#Cc1cnc2cc(OC[C@@H](O)CO)c(NC(=O)C3CCCC3)cc2c1Nc1ccc(OCc2cccc(F)c2)c(Cl)c1
CLASS NAME: inactive

COMPOUND: CNCC/C=C1\c2cc3c(cc2-c2c1c1cc(OC)c(OC)cc1c(=O)n2C)OCO3
CLASS NAME: inactive

COMPOUND: Cc1ccc(C(=O)NCCCOc2ccc(N3C(N)=NC(N)=NC3(C)C)cc2Cl)cc1S(=O)(=O)F
CLASS NAME: inactive

COMPOUND: Cc1ccc(C(=O)c2sc3nc4c(cc3c2N)CCCC4)c(C)c1
CLASS NAME: inactive

COMPOUND: CN(C)C(=O)OCc1nc2c(N3CCOCC3)nc(-c3ccccc3)nc2n1C
CLASS NAME: inactive
